- TESTED_ON: rat intestinal DPP-IV (Rattus norvegicus)
- Construct: 10 μL of rat intestinal DPP-IV (0.1 U/mL in the assay); from tissue; host or cells: rat intestine
- Sequence (P14740 whole entry): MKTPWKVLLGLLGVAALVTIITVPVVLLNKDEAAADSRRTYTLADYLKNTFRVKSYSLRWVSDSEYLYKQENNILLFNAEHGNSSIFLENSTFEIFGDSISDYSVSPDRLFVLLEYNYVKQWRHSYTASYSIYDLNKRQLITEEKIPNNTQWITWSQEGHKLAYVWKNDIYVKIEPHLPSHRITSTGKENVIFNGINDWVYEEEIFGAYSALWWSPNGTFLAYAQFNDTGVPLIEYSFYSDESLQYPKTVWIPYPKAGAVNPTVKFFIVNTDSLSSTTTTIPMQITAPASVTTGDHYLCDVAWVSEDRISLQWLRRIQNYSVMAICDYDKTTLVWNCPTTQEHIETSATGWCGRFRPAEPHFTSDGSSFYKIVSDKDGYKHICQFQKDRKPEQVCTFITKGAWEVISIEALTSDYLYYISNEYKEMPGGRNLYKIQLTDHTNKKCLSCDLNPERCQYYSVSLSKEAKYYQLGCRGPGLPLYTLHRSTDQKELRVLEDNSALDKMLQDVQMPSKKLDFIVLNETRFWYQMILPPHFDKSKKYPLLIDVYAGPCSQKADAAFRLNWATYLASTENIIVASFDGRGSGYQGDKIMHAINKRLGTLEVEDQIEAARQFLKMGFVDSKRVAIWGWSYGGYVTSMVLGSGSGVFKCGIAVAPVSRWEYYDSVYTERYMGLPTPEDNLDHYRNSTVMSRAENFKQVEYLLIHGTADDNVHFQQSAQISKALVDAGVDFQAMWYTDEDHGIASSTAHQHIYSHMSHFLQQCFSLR
- PROTOCOL_SUMMARY: Dipeptidyl peptidase IV (DPP-IV) assay
- Assay type: biochemical
- CONDITION_INFO: synthetic peptides
Ends that are not written are not given here.
MEASURED_PARAMETER: pIC50
Kindly note that pIC50 refers to -log10 of the concentration in mol/L and answer with the value alone.

Hey, rat intestinal DPP-IV (Rattus norvegicus) data for VVVPPF [VVVPPF] : pIC50 came out at 3.21

---

- TESTED_ON: yeast α-glucosidase (Saccharomyces cerevisiae)
- Sequence (P53341 whole entry): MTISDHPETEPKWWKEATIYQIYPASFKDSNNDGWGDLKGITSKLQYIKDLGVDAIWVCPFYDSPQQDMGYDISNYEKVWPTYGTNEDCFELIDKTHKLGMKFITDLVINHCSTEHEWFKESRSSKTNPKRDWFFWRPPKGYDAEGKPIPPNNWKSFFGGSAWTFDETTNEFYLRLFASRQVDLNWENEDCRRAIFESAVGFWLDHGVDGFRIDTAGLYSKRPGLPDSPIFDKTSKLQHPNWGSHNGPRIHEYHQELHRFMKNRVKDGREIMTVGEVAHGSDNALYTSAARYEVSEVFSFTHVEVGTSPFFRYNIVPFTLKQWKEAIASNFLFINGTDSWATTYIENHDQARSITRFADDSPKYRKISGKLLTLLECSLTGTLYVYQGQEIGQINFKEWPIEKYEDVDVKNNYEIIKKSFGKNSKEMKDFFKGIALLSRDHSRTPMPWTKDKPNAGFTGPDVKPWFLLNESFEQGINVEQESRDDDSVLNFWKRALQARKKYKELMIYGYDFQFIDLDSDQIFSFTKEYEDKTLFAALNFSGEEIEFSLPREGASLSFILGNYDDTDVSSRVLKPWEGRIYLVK
- PROTOCOL_SUMMARY: α-Glucosidase assay
- Assay type: biochemical
- CONDITION_INFO: synthetic peptides; n.a. = not active
pIC50: −log10 of the molar value. Ends that are not written are not given here.
MEASURED_PARAMETER: pIC50

Memo: VVVPPF [VVVPPF] , reported pIC50: < 3.00
